- Target Or Test System: BMAL1 (Homo sapiens, UniProt O00327)
- Sequence (O00327 338-449): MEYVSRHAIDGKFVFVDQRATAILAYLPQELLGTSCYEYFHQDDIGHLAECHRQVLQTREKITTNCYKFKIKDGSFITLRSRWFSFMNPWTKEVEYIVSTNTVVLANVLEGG
- Parameters: PASB domain (residues 338–449); Protein thermal shift (PTS) fragment screen on recombinant human BMAL1(PASB), shift of melting temperature
- Condition Details: dTmB; binder
Assay Endpoint: Bmal1(PASB) dTmB (°C)
Report the value in °C with no unit label.

• CC(C(=O)O)c1ccccc1 (stereo not drawn) = -0.02
• CCN(Cc1ccccc1)c1ccccc1 = -1.19
• CN1[C@@H]2CC[C@H]1CC(O)C2 (stereo partly drawn) = -0.41
• CC(C)CC(N)C1(c2ccc(Cl)cc2)CCC1 (stereo not drawn) = -2.54
• Oc1ccc(-c2ccc(F)cc2F)cc1 = -0.75
• CNCCC(c1ccccc1)c1ccccc1 = -1.48
• Cc1c(C)c2c(c(C)c1O)CCC(C)(C)O2 = 1.30
• NC(=O)CN1C(=O)c2ccccc2C1=O = -0.12

Now turn to the next compound.
Q. Quick check: Bmal1(PASB) dTmB on BMAL1 (Homo sapiens, UniProt O00327), item CC(Oc1ccccc1)C(N)=O (stereo not drawn) ?
A. -0.43

Reference source for all entries: paper PMC12037410
